The values you see were collected from patent US6638952B1.

# system-under-test: recombinant human MMP-13 (Homo sapiens, UniProt P45452)
# protocol: In vitro metalloprotease inhibition, fluorogenic peptide substrate
# conditions-used: APMA-activated enzyme, room temperature, pH 7.5, substrate 4 μM
Structures can show the parent of a compound that is named as a salt.
experimental-endpoint: IC50
Could you give the number and then its unit, please?

Before answering, review these 3 worked examples.
C#CCN1CCC(CS(=O)(=O)c2ccc(Oc3ccccc3)cc2)(C(=O)NO)CC1 [Example 4, Monohydrochloride] : 600 pM
CC(C)(C)OC(=O)N1CCC(CS(=O)(=O)c2ccc(Oc3ccccc3)cc2)(C(=O)NO)CC1 : 200 pM
C#CCN1CCC(CS(=O)(=O)c2ccc(Oc3ccc(C)c(C)c3)cc2)(C(=O)NO)CC1 [Example 7, Monohydrochloride] : 850 pM

Please find the next compound below.
Please indicate IC50 recorded for C#CCN1CCCC1(CS(=O)(=O)c1ccc(Oc2ccccc2)cc1)C(=O)NO (stereo not shown) [Example 8, Monohydrochloride]
1300 pM

---

# system-under-test: recombinant human MMP-1 (Homo sapiens)
# Sequence (P03956 100-469): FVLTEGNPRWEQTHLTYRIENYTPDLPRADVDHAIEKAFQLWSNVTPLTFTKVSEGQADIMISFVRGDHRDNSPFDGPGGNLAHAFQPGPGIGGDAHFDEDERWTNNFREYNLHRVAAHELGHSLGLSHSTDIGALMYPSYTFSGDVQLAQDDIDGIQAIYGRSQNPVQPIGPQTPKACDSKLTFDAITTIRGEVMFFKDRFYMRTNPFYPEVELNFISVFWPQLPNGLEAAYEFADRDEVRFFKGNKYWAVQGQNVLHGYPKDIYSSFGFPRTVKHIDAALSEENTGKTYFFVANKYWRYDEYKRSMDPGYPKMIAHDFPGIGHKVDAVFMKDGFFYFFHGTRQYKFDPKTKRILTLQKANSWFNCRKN
# protocol: In vitro metalloprotease inhibition, fluorogenic peptide substrate
# conditions-used: APMA-activated enzyme, room temperature, pH 7.5, substrate 4 μM
Where a name gives a salt, the structure may show the parent alone.
experimental-endpoint: IC50 (µM)
Response body: numeric value in µM, unit text excluded.

Answered cases to consult:
C#CCN1CCC(CS(=O)(=O)c2ccc(Oc3ccccc3)cc2)(C(=O)NO)CC1 [Example 4, Monohydrochloride] : 0.485
CC(C)(C)OC(=O)N1CCC(CS(=O)(=O)c2ccc(Oc3ccccc3)cc2)(C(=O)NO)CC1 [Example 5] : 0.475

// Input: COc1cccc(CN2CCC(CS(=O)(=O)c3ccc(Oc4ccccc4)cc3)(C(=O)NO)CC2)c1 [Example 3, Monohydrochloride] . Output its IC50 only.
0.33

Please indicate IC50 recorded for Cl.O=C(NO)C1(CS(=O)(=O)c2ccc(Oc3ccccc3)cc2)CCNCC1 [Example 6, Monohydrochloride]
2.4

Could you please provide reported IC50 for O=C(NO)C1(CS(=O)(=O)c2ccc(Oc3ccccc3)cc2)CCN(CCc2ccccc2)CC1 [Example 2, Monohydrochloride] ? Thanks!
0.7
